System: SUDHL10
Assay: Induction of cytotoxicity (CellTiter-Glo, 5 h), SUDHL10
Conditions: read-out: Cytotox SUDHL10 [M] (median); SUDHL10 cells, cytotoxicity induction, CellTiter-Glo, 5 h incubation, median
readout_type: log10 of IC50 (log10 of the value in M)
In plain terms, each number is the log10 of measured IC50 in M.

Ask: Which log10 of IC50 is reported for this compound? CCc1c2c(nn1C)COCCCCn1c(C(=O)O)c(CCCOc3cccc4cc(F)ccc34)c3cccc-2c31 (single isomer, unassigned) [Example 282]
Reply: -6.11

Ask: Which log10 of IC50 is reported for this compound? Cn1nc(COc2ccc(N3CCN(S(=O)(=O)C4CC4)CC3)cc2)c2c1COCCCCn1c(C(=O)O)c(CCCOc3cccc4ccccc34)c3cccc-2c31 (single isomer, unassigned; enantiomer 1) [Example 1-12]
Reply: -4.84

Ask: Which log10 of IC50 is reported for this compound? Cc1ccc2c(C(C)CCOc3cccc4cc(F)ccc34)c(C(=O)O)n3c2c1-c1c(nn(C)c1C)COCCCC3 (single isomer, unassigned) [Example 277]
Reply: -5.64

Ask: Which log10 of IC50 is reported for this compound? CCS(=O)(=O)N1CCN(c2ccc(N3CCCn4c(C(=O)O)c(CCCOc5cccc6ccccc56)c5cccc(c54)-c4c(C)nn(C)c4C3)cc2)CC1 (single isomer, unassigned; enantiomer 2)
Reply: -4.77

Ask: Which log10 of IC50 is reported for this compound? Cc1cc2c(OCCCc3c(C(=O)O)n4c5c(cccc35)-c3c(C)nn(C)c3COCCCC4)cccc2cc1F (single isomer, unassigned; enantiomer 1) [Example 050]
Reply: -5.02

* * *

Tested on: SUDHL5
Assay: Induction of cytotoxicity (CellTiter-Glo, 5 h), SUDHL5
Conditions: read-out: Cytotox SUDHL5 [M] (median); SUDHL5 cells, cytotoxicity induction, CellTiter-Glo, 5 h incubation, median
readout_type: IC50 (M)
Supply the numeric figure in M, leaving out any unit text.

Examples with their reported IC50 follow.
Cc1nn(C)c2c1-c1cccc3c(CCCOc4ccc(F)c5ccccc45)c(C(=O)O)n(c13)CCCCOC2 (single isomer, unassigned; enantiomer 1) [Example 022] = 4.08e-06
Cn1nc(COc2ccc(S(C)(=O)=O)cc2)c2c1COCC=CCn1c(C(=O)O)c(CCCOc3cccc4ccccc34)c3cccc-2c31 (single isomer, unassigned) [Example 1-52] = 3.15e-05
CC(C)c1c2c(nn1C)CN(C)CCCn1c(C(=O)O)c(CCCOc3cccc4ccccc34)c3cccc-2c31 (single isomer, unassigned; enantiomer 2) = 1.13e-05
COCc1c2c(nn1C)COCCCCn1c(C(=O)O)c(CCCOc3cccc4ccccc34)c3cccc-2c31 (single isomer, unassigned; enantiomer 2) [Example 101] = 2.03e-06

Ask: Which IC50 is reported for this compound? Cc1c2c(nn1C)COCCCCn1c(C(=O)O)c(CCCOc3cccc4ccccc34)c3cccc-2c31 (single isomer, unassigned; enantiomer 1) [Example 1-37]
Reply: 1.92e-06

Ask: Which IC50 is reported for this compound? Cn1nc(COc2ccc(S(C)(=O)=O)cc2)c2c1COCCCCn1c(C(=O)O)c(CCCOc3cccc4ccccc34)c3cccc-2c31 (single isomer, unassigned) [Example 1-56]
Reply: 5.72e-06

// data source = patent US10981932B2
